Exercise: for every item that follows, state its recorded TC50 (Blood flow).
test system: zebrafish larvae; experiment: Toxicity assay in zebrafish larvae (heart beat, blood flow, cardiac edema); assay type: in vivo, zebrafish (Danio rerio); details: drug from Sigma; 3 dpf larvae, drug added 24 hpf
State the result as a value with its unit after it.

Answered examples (3):
# compound, target desc, result
measured = [
    ("CO[C@H]1O[C@@H]2O[C@@]3(C)CC[C@H]4[C@H](C)CC[C@@H]([C@H]1C)[C@@]24OO3", "zebrafish larvae", "975.3 nM"),
    ("C[C@H]1[C@H](OC(=O)CCC(=O)O)O[C@@H]2O[C@@]3(C)CC[C@H]4[C@H](C)CC[C@@H]1[C@@]24OO3 [Artesunate]", "zebrafish larvae", "741.5 nM"),
    ("C[C@H]1[C@@H](O)O[C@@H]2O[C@]3(C)CC[C@H]4[C@H](C)CC[C@@H]1[C@@]24OO3 [Dihydroartemisinin]", "zebrafish larvae", "890 nM"),
]

[ask] Reported TC50 (Blood flow), compound C[C@@H]1CC[C@H]2[C@@H](C)C(=O)O[C@@H]3O[C@]4(C)CC[C@@H]1[C@]32OO4 : ____
[reply] 1058 nM

// provenance: patent US10292991B2
